These data points were gathered from PubChem BioAssay (EPA / NIEHS).

target_desc: Nuclear receptor subfamily 4 group A member 2 (Homo sapiens) (UniProt P43354)
Sequence (P43354 whole entry, looked up): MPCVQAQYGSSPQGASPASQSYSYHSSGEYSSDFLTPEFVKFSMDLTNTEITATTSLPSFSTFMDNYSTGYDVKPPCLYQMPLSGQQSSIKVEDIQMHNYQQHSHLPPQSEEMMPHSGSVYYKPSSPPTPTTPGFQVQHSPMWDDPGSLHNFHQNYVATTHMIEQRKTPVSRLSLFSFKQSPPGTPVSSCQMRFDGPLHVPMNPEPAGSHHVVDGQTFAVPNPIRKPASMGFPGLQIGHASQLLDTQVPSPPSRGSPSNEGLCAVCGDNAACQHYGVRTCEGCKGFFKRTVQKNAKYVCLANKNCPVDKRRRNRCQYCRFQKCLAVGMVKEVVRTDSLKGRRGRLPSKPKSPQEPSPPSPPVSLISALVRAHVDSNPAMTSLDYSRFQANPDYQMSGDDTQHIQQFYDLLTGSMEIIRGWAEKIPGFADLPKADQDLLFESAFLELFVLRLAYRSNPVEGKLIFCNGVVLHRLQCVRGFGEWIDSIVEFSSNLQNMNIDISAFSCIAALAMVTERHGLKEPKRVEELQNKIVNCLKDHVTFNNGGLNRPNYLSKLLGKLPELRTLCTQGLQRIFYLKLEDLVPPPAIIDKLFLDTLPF
test_protocol: ATG_NURR1_TRANS: Attagene TRANS-FACTORIAL HepG2 Assay for human Nuclear Receptor Related Protein 1 (NURR1) (AID 2282985)
assay_context: HepG2 Attagene TRANS reporter, mRNA readout
Results filed as inconclusive are left out. Calls of active or inactive are those of the source. Rule for the calls: active = hit-call score of the fitted dose curve at least 0.9, where 1 is the maximum; inconclusive = response in the unintended direction; inactive = score below 0.9.
Possible outcomes: active, inactive

> print(dat)
                                    molecule                               target.desc     class
 1          Cc1cc(C(C)(C)C)c(O)c(C(C)(C)C)c1  Nuclear receptor subfamily 4 group A member 2 (Homo sapiens) (UniProt P43354)    active
 2           CC(C)[C@@H]1CC[C@@H](C)C[C@H]1O  Nuclear receptor subfamily 4 group A member 2 (Homo sapiens) (UniProt P43354)  inactive
 3  O=C(CC(=O)C(F)(F)C(F)(F)C(F)(F)F)c1cccs1  Nuclear receptor subfamily 4 group A member 2 (Homo sapiens) (UniProt P43354)  inactive
 4     CC(C)(C)C1CCCCC1O (centres undefined)  Nuclear receptor subfamily 4 group A member 2 (Homo sapiens) (UniProt P43354)  inactive
 5  O=C1OC(=O)c2cc(-c3ccc4c(c3)C(=O)OC4=O)ccc21  Nuclear receptor subfamily 4 group A member 2 (Homo sapiens) (UniProt P43354)  inactive
 6   O=C(Nc1ccc(Cl)c(Cl)c1)c1cc(Cl)cc(Cl)c1O  Nuclear receptor subfamily 4 group A member 2 (Homo sapiens) (UniProt P43354)  inactive
 7                   CCCCCCOC(=O)c1ccc(O)cc1  Nuclear receptor subfamily 4 group A member 2 (Homo sapiens) (UniProt P43354)    active
 8                  Cc1ccc2ccc3ccc(C)cc3c2c1  Nuclear receptor subfamily 4 group A member 2 (Homo sapiens) (UniProt P43354)  inactive
 9                     CC(C)(O)C(=O)c1ccccc1  Nuclear receptor subfamily 4 group A member 2 (Homo sapiens) (UniProt P43354)  inactive
10    O=C1c2ccc(O)c(O)c2C(=O)c2c(O)ccc(O)c21  Nuclear receptor subfamily 4 group A member 2 (Homo sapiens) (UniProt P43354)  inactive
11  C=CC(=O)OCCC(F)(F)C(F)(F)C(F)(F)C(F)(F)C(F)(F)C(F)(F)F  Nuclear receptor subfamily 4 group A member 2 (Homo sapiens) (UniProt P43354)  inactive
12                    CCC(=O)C=Cc1ccc(OC)cc1  Nuclear receptor subfamily 4 group A member 2 (Homo sapiens) (UniProt P43354)  inactive
13  NC(=NCCCCCCN=C(N)/N=C(\N)Nc1ccc(Cl)cc1)/N=C(\N)Nc1ccc(Cl)cc1  Nuclear receptor subfamily 4 group A member 2 (Homo sapiens) (UniProt P43354)  inactive
14                        C=CC(=O)OCCN(CC)CC  Nuclear receptor subfamily 4 group A member 2 (Homo sapiens) (UniProt P43354)  inactive
15                      Nc1ccc(O)c(C(=O)O)c1  Nuclear receptor subfamily 4 group A member 2 (Homo sapiens) (UniProt P43354)  inactive
16           CCCCCCCCCCCC[N+](C)(C)Cc1ccccc1  Nuclear receptor subfamily 4 group A member 2 (Homo sapiens) (UniProt P43354)  inactive
17  CN(CCO)S(=O)(=O)C(F)(F)C(F)(F)C(F)(F)C(F)(F)C(F)(F)C(F)(F)C(F)(F)C(F)(F)F  Nuclear receptor subfamily 4 group A member 2 (Homo sapiens) (UniProt P43354)  inactive
18                            NCc1cccc(CN)c1  Nuclear receptor subfamily 4 group A member 2 (Homo sapiens) (UniProt P43354)  inactive
19                                  CCOCCOCC  Nuclear receptor subfamily 4 group A member 2 (Homo sapiens) (UniProt P43354)  inactive
20  Nc1ccn([C@@H]2O[C@H](CO)[C@@H](O)C2O)c(=O)n1 (some centres undefined)  Nuclear receptor subfamily 4 group A member 2 (Homo sapiens) (UniProt P43354)  inactive
21                  Cc1ccc(C)c(S(=O)(=O)O)c1  Nuclear receptor subfamily 4 group A member 2 (Homo sapiens) (UniProt P43354)  inactive
22        Cc1ccc(N=Nc2c(O)ccc3ccccc23)c(C)c1  Nuclear receptor subfamily 4 group A member 2 (Homo sapiens) (UniProt P43354)  inactive
23  CCCCC(CC)C(=O)OCCOCCOCCOCCOC(=O)C(CC)CCCC (centres undefined)  Nuclear receptor subfamily 4 group A member 2 (Homo sapiens) (UniProt P43354)  inactive
24         O=c1cc(-c2ccccc2)oc2ccc3ccccc3c12  Nuclear receptor subfamily 4 group A member 2 (Homo sapiens) (UniProt P43354)  inactive
25  O=C(O)CCC(F)(F)C(F)(F)C(F)(F)C(F)(F)C(F)(F)F  Nuclear receptor subfamily 4 group A member 2 (Homo sapiens) (UniProt P43354)  inactive
26  COC(=O)C(F)(F)C(F)(F)C(F)(F)C(F)(F)C(F)(F)F  Nuclear receptor subfamily 4 group A member 2 (Homo sapiens) (UniProt P43354)  inactive
27                          CCO[Si](C)(C)OCC  Nuclear receptor subfamily 4 group A member 2 (Homo sapiens) (UniProt P43354)  inactive
28                                 CCOC(C)=O  Nuclear receptor subfamily 4 group A member 2 (Homo sapiens) (UniProt P43354)  inactive
29  CCOC(=O)c1nc(C(Cl)(Cl)Cl)n(-c2ccc(Cl)cc2Cl)n1  Nuclear receptor subfamily 4 group A member 2 (Homo sapiens) (UniProt P43354)    active
30                        CCN(CCC#N)c1ccccc1  Nuclear receptor subfamily 4 group A member 2 (Homo sapiens) (UniProt P43354)  inactive
31     O=C(c1cc(O)c(O)c(O)c1)c1ccc(O)c(O)c1O  Nuclear receptor subfamily 4 group A member 2 (Homo sapiens) (UniProt P43354)  inactive
32                          CCCCCc1ccc(O)cc1  Nuclear receptor subfamily 4 group A member 2 (Homo sapiens) (UniProt P43354)  inactive
33               Brc1ccc(Oc2ccc(Br)cc2Br)cc1  Nuclear receptor subfamily 4 group A member 2 (Homo sapiens) (UniProt P43354)  inactive
34     CCCCCCCCCCCCCCCCCC[N+](C)(C)Cc1ccccc1  Nuclear receptor subfamily 4 group A member 2 (Homo sapiens) (UniProt P43354)  inactive
35           COc1ccccc1NC(=O)c1cc2ccccc2cc1O  Nuclear receptor subfamily 4 group A member 2 (Homo sapiens) (UniProt P43354)  inactive
36  C[N+](C)(CCCNS(=O)(=O)CCC(F)(F)C(F)(F)C(F)(F)C(F)(F)C(F)(F)C(F)(F)F)CC(=O)[O-]  Nuclear receptor subfamily 4 group A member 2 (Homo sapiens) (UniProt P43354)  inactive
37                           CCCCCCCCCCCCCCC  Nuclear receptor subfamily 4 group A member 2 (Homo sapiens) (UniProt P43354)  inactive
38                         C=CCOCC(CO)(CO)CO  Nuclear receptor subfamily 4 group A member 2 (Homo sapiens) (UniProt P43354)  inactive
39  COC1=CC(=O)C[C@@H](C)[C@]12Oc1c(Cl)c(OC)cc(OC)c1C2=O  Nuclear receptor subfamily 4 group A member 2 (Homo sapiens) (UniProt P43354)  inactive
40                                 CCN(CC)CC  Nuclear receptor subfamily 4 group A member 2 (Homo sapiens) (UniProt P43354)  inactive
41                    O=C(O)c1cccc(C(=O)O)n1  Nuclear receptor subfamily 4 group A member 2 (Homo sapiens) (UniProt P43354)  inactive
42        OCC1CCC(CO)CC1 (centres undefined)  Nuclear receptor subfamily 4 group A member 2 (Homo sapiens) (UniProt P43354)  inactive
43                                  CC(C)C=O  Nuclear receptor subfamily 4 group A member 2 (Homo sapiens) (UniProt P43354)  inactive
44          O=C(F)C(F)(F)C(F)(F)C(F)(F)C(F)F  Nuclear receptor subfamily 4 group A member 2 (Homo sapiens) (UniProt P43354)  inactive
45                  FC(F)(F)C(F)(F)C(F)(F)Br  Nuclear receptor subfamily 4 group A member 2 (Homo sapiens) (UniProt P43354)  inactive
46    FC(F)(F)N1C(F)(F)C(F)(F)OC(F)(F)C1(F)F  Nuclear receptor subfamily 4 group A member 2 (Homo sapiens) (UniProt P43354)  inactive
47  Cc1[nH]nc2c1N=C(c1ccccc1Cl)c1cc([N+](=O)[O-])ccc1N2  Nuclear receptor subfamily 4 group A member 2 (Homo sapiens) (UniProt P43354)  inactive
48                    C=COC(=O)C(C)(C)CCCCCC  Nuclear receptor subfamily 4 group A member 2 (Homo sapiens) (UniProt P43354)  inactive
49                          Oc1cc2ccccc2cc1O  Nuclear receptor subfamily 4 group A member 2 (Homo sapiens) (UniProt P43354)  inactive
50       Nc1cc(Cl)c(-c2cc(Cl)c(N)cc2Cl)cc1Cl  Nuclear receptor subfamily 4 group A member 2 (Homo sapiens) (UniProt P43354)  inactive
51                    Cc1cc(=O)oc2cc(O)ccc12  Nuclear receptor subfamily 4 group A member 2 (Homo sapiens) (UniProt P43354)  inactive
52                   CC(C)(C)c1ccc(CCC=O)cc1  Nuclear receptor subfamily 4 group A member 2 (Homo sapiens) (UniProt P43354)  inactive
53  O=C(Nc1cccc([N+](=O)[O-])c1)c1cc2ccccc2cc1O  Nuclear receptor subfamily 4 group A member 2 (Homo sapiens) (UniProt P43354)  inactive
54                    CCOC(OCC)C(=O)c1ccccc1  Nuclear receptor subfamily 4 group A member 2 (Homo sapiens) (UniProt P43354)  inactive
